assayed target: FMDV 3Cpro (Foot-and-mouth disease virus A)
measurement notes: biochemical
Design: species or system FMDV A/IND287/96 strain (serotype A)
conditions: FRET assay (IC50)
metric name: pIC50
FYI, pIC50 means -log10 of a concentration in mol per litre.

Example results:
compound	assayed target	pIC50
CC(C)C[C@H](NC(=O)OCCSc1ccccc1)C(=O)N[C@@H](C[C@@H]1CCNC1=O)C(O)S(=O)(=O)O (stereo partly shown)	FMDV 3Cpro (Foot-and-mouth disease virus A)	5.99
CC(C)C[C@H](NC(=O)OCC(C)(C)Oc1cccc(Cl)c1)C(=O)N[C@H](C=O)C[C@@H]1CCNC1=O [Compound D13c]	FMDV 3Cpro (Foot-and-mouth disease virus A)	6.17
CC(C)C[C@H](NC(=O)OC[C@@H]1C[C@H]1Cc1ccccc1)C(=O)N[C@H](C=O)C[C@H]1CCNC1=O	FMDV 3Cpro (Foot-and-mouth disease virus A)	6.16
COc1cccc([C@@H]2C[C@H]2COC(=O)N[C@@H](CC(C)C)C(=O)N[C@H](C=O)C[C@H]2CCNC2=O)c1	FMDV 3Cpro (Foot-and-mouth disease virus A)	6.12
CC(C)C[C@H](NC(=O)OCC(C)(C)Sc1ccc(F)cc1)C(=O)N[C@H](C=O)C[C@@H]1CCNC1=O	FMDV 3Cpro (Foot-and-mouth disease virus A)	6.04
[2H]C([2H])(OC(=O)N[C@@H](CC(C)C)C(=O)N[C@@H](C[C@@H]1CCNC1=O)C(O)S(=O)(=O)[O-])C(C)(C)Oc1ccc(Cl)cc1.[Na+] (stereo partly shown) [Compound D12d]	FMDV 3Cpro (Foot-and-mouth disease virus A)	6.72
CC(C)C[C@H](NC(=O)OC[C@H]1[C@H](c2ccccc2)C1(F)F)C(=O)N[C@@H](C[C@H]1CCNC1=O)C(O)S(=O)(=O)O (stereo partly shown)	FMDV 3Cpro (Foot-and-mouth disease virus A)	5.96
CC(C)C[C@H](NC(=O)OC[C@@H]1C[C@H]1C1CCCCC1)C(=O)N[C@@H](C[C@H]1CCNC1=O)C(O)S(=O)(=O)O (stereo partly shown) [Compound C15d]	FMDV 3Cpro (Foot-and-mouth disease virus A)	6.54

Input line: GET /values?readout=pIC50&item= CC(C)C[C@H](NC(=O)OC[C@@H]1C[C@H]1c1ccccc1)C(=O)N[C@H](C=O)C[C@H]1CCNC1=O
Output line: 6.00

Input line: What do you have for CC(C)C[C@H](NC(=O)OCC(C)(C)Sc1nc2ccccc2[nH]1)C(=O)N[C@H](C=O)C[C@@H]1CCNC1=O ?
Output line: 5.67

Input line: What do you have for CC(C)C[C@H](NC(=O)OCC(C)(C)Sc1ccccc1)C(=O)N[C@@H](C[C@@H]1CCNC1=O)C(O)S(=O)(=O)O (stereo partly shown) ?
Output line: 6.00

Input line: What do you have for CC(C)C[C@H](NC(=O)OCCSc1ccccc1)C(=O)N[C@H](C=O)C[C@@H]1CCNC1=O ?
Output line: 5.87

Input line: What do you have for CC(C)C[C@H](NC(=O)OCC(C)(C)Oc1ccc(Cl)cc1)C(=O)N[C@H](C=O)C[C@@H]1CCNC1=O [Compound D11c] ?
Output line: 6.16

Input line: What do you have for CC(C)C[C@H](NC(=O)OCc1ccccc1)C(=O)N[C@@H](C[C@@H]1CCNC1=O)C(=O)C(=O)NC(C)(C)C ?
Output line: 5.82
